Source listed as PubChem BioAssay.

- method-summary: viability gain of MRP-1-high H69AR cells under doxorubicin, pilot screen, MRP-1 activator project, CellTiter-Glo, duplicate (AID 807);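 further: compound pretreatment 18-22 h then 72 h combined with doxorubicin; 0% = doxorubicin alone and 100% = vehicle without doxorubicin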
- stated-conditions: H69AR viability with doxorubicin, CellTiter-Glo luminescence; at 10 µM; stronger effect = higher value
viability increase values, listed per item
assay-endpoint: viability increase (%)

> print(dat)
                                    compound      assay.endpoint  result.number
 1  COc1ccc2nc(N3CCCC(C(=O)NCCCN4CCN(C)CC4)C3)sc2c1 (stereo not drawn)  viability increase          -2.35
 2  O=C(CN1CCN(CC(=O)Nc2ccccn2)CC1)Nc1ccccn1  viability increase          -0.95
 3  CCc1cccc(NC(=O)CS(=O)Cc2nc(-c3ccc(C)cc3)oc2C)c1 (stereo not drawn)  viability increase          -1.87
 4         CCOC(=O)C1=C(O)CSC1=Nc1ccc(Cl)cc1  viability increase          -1.62
 5                CCc1nnc(NC(=O)CN2CCOCC2)s1  viability increase          -1.62
 6  Cn1cccc1Cc1nnc(SCC(=O)NCCc2ccccc2)n1-c1ccc(F)cc1  viability increase          -2.38
 7  Cc1nn(-c2ccccc2)c2c1C(c1ccncc1)C(C#N)=C(N)O2 (stereo not drawn)  viability increase          -0.07
 8  O=S(=O)(NCC(c1cccnc1)N1CCN(c2ccc(F)cc2)CC1)c1ccc(F)cc1 (stereo not drawn)  viability increase          -2.52
 9                C=CCNC(=O)COc1ccc(Br)cc1Cl  viability increase           1.27
10  COc1ccccc1N1CCN(Cc2cc(Br)c(O)c3ncccc23)CC1  viability increase          -6.58
11      C(=N\c1nc2ccccc2n1Cc1ccccc1)/c1cccs1  viability increase          -3.85
12  COc1ccc(C2C3=C(CC(C)(C)CC3=O)Nc3c2c(=O)[nH]c(=O)n3Cc2ccccc2)cc1 (stereo not drawn)  viability increase          -2.53
13  Cc1ccc(N2CCN(S(=O)(=O)c3ccc(F)cc3)CC2)c(C)c1  viability increase          -1.12
14            O=S(=O)(c1ccccc1)n1ccc2ccccc21  viability increase          -5.11
15    C=C(C)Cn1c(NCCC)nc2c1c(=O)n(C)c(=O)n2C  viability increase          -0.51
16  Cc1nn(C)c(C)c1S(=O)(=O)N(CC(=O)NCc1cccs1)c1ccc(C(C)C)cc1  viability increase          -3.06
17  O=C(CC1Oc2ccccc2NC1=O)NCCCN1CCN(Cc2ccccc2)CC1 (stereo not drawn)  viability increase          -3.71
18  O=C(NCC1CCCO1)c1ccc2nc(N3CCCCC3)sc2c1 (stereo not drawn)  viability increase          -0.46
19  Cc1ccc(S(=O)(=O)Cc2ccc(C(=O)N3CCN(c4ccc(F)cc4)CC3)o2)cc1  viability increase          -6.28
20         CN(C)S(=O)(=O)c1ccc(-c2ccccc2)cc1  viability increase           0.02
21  Nc1cc(=O)[nH]c(SCc2nc3ccccc3n2Cc2ccccc2)n1  viability increase          -0.14
22  O=C(NCCCN1CCN(c2ccccc2F)CC1)C1CCC(=O)N1C1CCCC1 (stereo not drawn)  viability increase          -2.46
23           COc1ccc(NC(=O)c2cc3ccccc3o2)cc1  viability increase          -4.64
